# Tested on: CCRIS mutagenicity, Ames/micronucleus/aberration tests
# assay-name: CCRIS mutagenicity studies
# study-conditions: Test System: AMES SALMONELLA TYPHIMURIUM; Strain/Indicator: TA100; Metabolic Activation: HAMSTER, LIVER, S-9, AROCLOR 1254 (10%); Method: PREINCUBATION
Activity calls are given as the source filed them. The rule behind the calls is not given here.
Reply using exactly one outcome from y = active, n = inactive

{"columns": ["compound", "class-label"],
 "data": [
  ["O=c1ccc2ccccc2o1", "y"],
  ["CC(C)OCC1CO1 (stereo not drawn)", "y"],
  ["Cc1ccc(S(=O)(=O)Oc2ccc(N=Nc3ccc(-c4ccc(N=Nc5c(O)ccc6cc(S(=O)(=O)O)cc(S(=O)(=O)O)c56)c(C)c4)cc3C)cc2)cc1", "n"],
  ["C[CH2][Hg][S]c1ccccc1C(=O)O", "n"]
]}

*Q* Tell me the assay call for `Nc1ccc(Cc2ccc(N)cc2)cc1` please.
*A* y

*Q* Query: recorded result category for `O=c1[nH]c(=O)n(Cl)c(=O)n1Cl` in this test
*A* n

*Q* Give the logged outcome of this assay for the following compound: `O=C(Nc1cccc2c(=O)c3c(ccc4c5cc(NC(=O)c6ccccc6)c6c(=O)c7ccccc7c(=O)c6c5[nH]c43)c(=O)c12)c1ccccc1`
*A* n

*Q* Test call, this compound: CCCCC(CC)COP(=O)(Oc1ccccc1)Oc1ccccc1 (stereo not drawn)
*A* n

---

# Test system: CCRIS mutagenicity, Ames/micronucleus/aberration tests
# assay-name: CCRIS mutagenicity studies
# study-conditions: Test System: E. COLI; Strain/Indicator: WP2 UVRA; Metabolic Activation: NONE; Method: STANDARD PLATE
Activity calls are given as the source filed them. No rule for the calls is given here.

{"columns": ["compound", "mutagenic call"],
 "data": [
  ["CCNCC#CC(C)(C)OC(=O)C(O)(c1ccccc1)C1CCCCC1 (centres undefined)", "inactive; negative"],
  ["CN(C)C(=O)c1nc(CNC(=O)CN)n(-c2ccc(Cl)cc2C(=O)c2ccccc2Cl)n1", "inactive; negative"],
  ["Cc1ccc(C(=O)c2cc(O)c(O)c([N+](=O)[O-])c2)cc1", "inactive; negative"]
]}

---

# System: CCRIS mutagenicity, Ames/micronucleus/aberration tests
# assay-name: CCRIS mutagenicity studies
# study-conditions: Test System: AMES SALMONELLA TYPHIMURIUM; Strain/Indicator: TA1535; Metabolic Activation: HAMSTER, LIVER, S-9, AROCLOR 1254; Method: STANDARD PLATE
# Text: The CCRIS database contains chemical records with carcinogenicity, mutagenicity, tumor promotion, and tumor inhibition test results. It was developed by the National Cancer Institute (NCI). Data are derived from studies cited in primary journals, current awareness tools, NCI reports, and other sources. Test results have been reviewed by experts in carcinogenesis and mutagenesis. CCRIS provides historical information from the years 1985 - 2011. It is no longer updated. […]
The source made the active and inactive calls. No rule for the calls is given here.
// allowed return values: active, inactive

{"columns": ["compound", "class-label"],
 "data": [
  ["CC(C)(C#N)C(C)(C)C#N", "inactive"],
  ["O=[N+]([O-])OCC(CO[N+](=O)[O-])O[N+](=O)[O-]", "active"],
  ["[O-]/[N+](=N\\O)c1ccccc1", "inactive"]
]}

*Q* Per the assay record, what outcome was assigned to `COc1cc2c(c(OC)c1OC)-c1ccc(OC)c(=O)cc1[C@@H](NC(C)=O)CC2` ?
*A* inactive

*Q* Could you kindly confirm the outcome this assay logged for `O=[N+]([O-])/C(Br)=C\c1ccccc1` ?
*A* inactive

---

# Tested on: CCRIS mutagenicity, Ames/micronucleus/aberration tests
# assay-name: CCRIS mutagenicity studies
# study-conditions: Test System: AMES SALMONELLA TYPHIMURIUM; Strain/Indicator: TA1538; Metabolic Activation: RAT, LIVER, S-9, AROCLOR 1254; Method: STANDARD PLATE
Active and inactive are the calls of the source. How the calls were made is not given here.
Bench note: report the call from true (1) for active, false (0) for inactive

Solved entries:
{"columns": ["molecule", "class-label"],
 "data": [
  ["ClNc1nc(NCl)nc(NCl)n1", "false (0)"],
  ["COC(=O)[C@@H]1O[C@@H]1c1ccccc1", "false (0)"],
  ["C=CC(=O)OCCCCCOC(=O)C=C", "false (0)"],
  ["CCN(CC)c1ccc2cc(-c3nc4ccccc4n3C)c(=O)oc2c1", "false (0)"],
  ["O=S(=O)(O)CNc1ccc(N=Nc2cccnc2)cc1", "false (0)"]
]}

*Q* Give the logged outcome of this assay for the following molecule: `O=c1cn[nH]c(=O)[nH]1`
*A* true (1)

*Q* For `O=S(O)(O)=S` , which call appears in the assay record?
*A* false (0)

*Q* Call for entry O=CC(O)C(O)C(O)C(O)COC1OC(COC2OC(CO)C(O)C(O)C2O)C(O)C(O)C1O (stereo not drawn) :
*A* false (0)

---

# Test system: CCRIS mutagenicity, Ames/micronucleus/aberration tests
# assay-name: CCRIS mutagenicity studies
# study-conditions: Test System: AMES SALMONELLA TYPHIMURIUM; Strain/Indicator: TA98; Metabolic Activation: NONE; Method: STANDARD PLATE
Calls of active or inactive are those of the source. The rule behind the calls is not given here.
recorded-endpoint: mutagenic call

Answered cases to consult:
{"columns": ["mol", "recorded-endpoint", "obs-value"],
 "data": [
  ["O=[N+]([O-])O[C@H]1CO[C@H]2[C@@H]1OC[C@H]2O[N+](=O)[O-]", "mutagenic call", "inactive; negative"],
  ["CC1(C)CCC[C@]2(C)[C@@H](C=O)C(C=O)=CC[C@@H]12", "mutagenic call", "inactive; negative"],
  ["ClC1=C(Cl)[C@]2(Cl)[C@@H]3[C@@H]4C[C@@H]([C@H]5O[C@@H]45)[C@@H]3[C@@]1(Cl)C2(Cl)Cl", "mutagenic call", "inactive; negative"],
  ["C=C(C)C(=O)OCC", "mutagenic call", "inactive; negative"]
]}

*Q* I am curious: what mutagenic call value has been reported for `c1ccc2nc3c(cc2c1)-c1cccc2cccc-3c12` ?
*A* inactive; negative

---

# System: CCRIS mutagenicity, Ames/micronucleus/aberration tests
# assay-name: CCRIS mutagenicity studies
# study-conditions: Test System: AMES SALMONELLA TYPHIMURIUM; Strain/Indicator: TA102; Metabolic Activation: NONE; Method: PREINCUBATION
Activity calls are given as the source filed them. No rule for the calls is given here.
Pick one: active, inactive

Take a look at these entries with their results.
{"columns": ["compound", "class-label"],
 "data": [
  ["C/C(=C(\\CCOC(=O)c1ccccc1)SC(=O)c1ccccc1)N(C=O)Cc1cnc(C)nc1N", "inactive"],
  ["Cc1ccc(N)c(S(=O)(=O)O)c1", "inactive"],
  ["CCOc1cc(C=O)ccc1O", "inactive"],
  ["O=S(O)S(=O)O", "inactive"],
  ["C[N+]1=CC=C(c2ccccc2)CC1", "inactive"]
]}

*Q* Please let me know the test result on file for `CCCC=O` .
*A* inactive

---

# System: CCRIS mutagenicity, Ames/micronucleus/aberration tests
# assay-name: CCRIS mutagenicity studies
# study-conditions: Test System: AMES SALMONELLA TYPHIMURIUM; Strain/Indicator: TA100; Metabolic Activation: RAT, LIVER, S-9, AROCLOR 1254; Method: STANDARD PLATE
The source made the active and inactive calls. No rule for the calls is given here.
Please answer using one outcome listed in Yes = active, No = inactive

Worked examples, 5 compounds total:
{"columns": ["compound", "target-of-assay", "class-label"],
 "data": [
  ["CC(C)CC(=O)OCc1cocc2c(C=O)ccc1-2", "CCRIS mutagenicity, Ames/micronucleus/aberration tests", "Yes"],
  ["c1ccc2c(c1)ccc1ncccc12", "CCRIS mutagenicity, Ames/micronucleus/aberration tests", "Yes"],
  ["ClCC(Cl)(Cl)Cl", "CCRIS mutagenicity, Ames/micronucleus/aberration tests", "Yes"],
  ["CC1CCC(C(C)C)C(=O)C1 (stereo not drawn)", "CCRIS mutagenicity, Ames/micronucleus/aberration tests", "No"],
  ["O=c1c(Cl)c(Cl)cnn1S(=O)(=O)c1ccccc1", "CCRIS mutagenicity, Ames/micronucleus/aberration tests", "No"]
]}

*Q* Per the assay record, what outcome was assigned to `Clc1cncc(Cl)c1` ?
*A* No

*Q* Hi team, can someone confirm the assay call for CC(C)CC(NC(=O)COc1ccc(Cl)cc1Cl)C(=O)O (stereo not drawn) ?
*A* No

*Q* Please let me know the test result on file for `Cc1cc2ccccc2c2ccc3ccccc3c12` .
*A* Yes

*Q* Each compound tested received a call. Report the one for `Cc1nc2c(c3[nH]c4ccccc4c13)C(=O)C=C(N1CC1)C2=O` .
*A* Yes

*Q* Tell me the recorded outcome of this test for O=CC(O)C(O)C(O)C(O)COC1OC(COC2OC(CO)C(O)C(O)C2O)C(O)C(O)C1O (stereo not drawn) .
*A* No
